Entries and their solubility thermodynamic values follow.
- assay_overview: Solubility of the compound at pH 7.4 by classic shake flask method
- Assay type: physicochemical
- condition_parameters: buffer
measured_metric: solubility thermodynamic (µg/mL)

[
  {
    "compound_structure": "O=C1CCCN1[C@H]1CC[C@@H](C(=O)Nc2ncc(-c3cc(F)cc(F)c3)cn2)CC1",
    "measured_metric": "solubility thermodynamic",
    "numeric_value": 38
  },
  {
    "compound_structure": "CN1CCN([C@H]2CC[C@@H](C(=O)Nc3ccc(-c4cc(F)cc(F)c4)cn3)CC2)C1=O",
    "measured_metric": "solubility thermodynamic",
    "numeric_value": 1.1
  },
  {
    "compound_structure": "O=C1CCCN1[C@H]1CC[C@@H](C(=O)Nc2ccc(-c3cc(F)cc(F)c3)cn2)CC1",
    "measured_metric": "solubility thermodynamic",
    "numeric_value": 0.7
  },
  {
    "compound_structure": "CCN1CCN([C@H]2CC[C@@H](C(=O)Nc3ccc(-c4cc(F)cc(F)c4)cn3)CC2)C1=O",
    "measured_metric": "solubility thermodynamic",
    "numeric_value": 1.6
  },
  {
    "compound_structure": "O=C1NCCCN1[C@H]1CC[C@@H](C(=O)Nc2ccc(-c3cc(F)cc(F)c3)cn2)CC1",
    "measured_metric": "solubility thermodynamic",
    "numeric_value": 1.3
  },
  {
    "compound_structure": "O=C1NCCN1[C@H]1CC[C@@H](C(=O)Nc2ccc(-c3cc(F)cc(F)c3)cn2)CC1",
    "measured_metric": "solubility thermodynamic",
    "numeric_value": 4.5
  },
  {
    "compound_structure": "CN1CCCN([C@H]2CC[C@@H](C(=O)Nc3ccc(-c4cc(F)cc(F)c4)cn3)CC2)C1=O",
    "measured_metric": "solubility thermodynamic",
    "numeric_value": 5.4
  },
  {
    "compound_structure": "O=C1OCCN1[C@H]1CC[C@@H](C(=O)Nc2ccc(-c3cc(F)cc(F)c3)cn2)CC1",
    "measured_metric": "solubility thermodynamic",
    "numeric_value": 4
  }
]

The values you see were collected from ChEMBL document CHEMBL3124873.
